- MEASUREMENT_TARGET: CYP2B6 (Homo sapiens)
- Sequence (P20813 whole entry): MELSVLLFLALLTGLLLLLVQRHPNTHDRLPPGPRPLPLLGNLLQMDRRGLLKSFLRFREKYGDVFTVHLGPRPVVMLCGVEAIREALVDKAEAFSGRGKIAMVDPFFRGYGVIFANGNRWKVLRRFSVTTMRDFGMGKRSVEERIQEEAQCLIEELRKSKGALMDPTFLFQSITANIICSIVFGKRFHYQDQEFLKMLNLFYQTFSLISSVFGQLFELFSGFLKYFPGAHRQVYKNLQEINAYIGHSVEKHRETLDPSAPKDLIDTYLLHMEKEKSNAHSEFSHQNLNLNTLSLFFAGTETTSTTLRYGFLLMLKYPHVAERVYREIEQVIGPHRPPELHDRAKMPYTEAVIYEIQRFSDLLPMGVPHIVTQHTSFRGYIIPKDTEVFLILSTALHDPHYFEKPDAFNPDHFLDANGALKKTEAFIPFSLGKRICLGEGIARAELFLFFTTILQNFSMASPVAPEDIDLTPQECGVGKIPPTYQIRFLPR
- EXPERIMENT_DESCRIPTION: CYP450 inhibition in human liver microsomes
- Type: in vitro ADME
- PARTICULARS: pooled human liver microsomes, pH 7.4, probe bupropion (12 μM)
PROPERTY_NAME: inhibition at 10 min, 10 µM (%)
Expressed in %, but write only the number.

O=C(Nc1cc(F)c(F)c(F)c1)[C@H]1CCN(C(=O)c2ccc(-c3ccncc3)[nH]2)C1 ... 81

Prompt: Using the record for O=C(Nc1cc(F)c(F)c(F)c1)[C@H]1CCN(C(=O)c2ccc(C3CC3)[nH]2)C1 , report its inhibition at 10 min, 10 µM.
Response: 50

Prompt: Another compound to check: O=C(Nc1cc(F)c(F)c(F)c1)[C@H]1CCN(C(=O)c2ccc(-c3cncnc3)[nH]2)C1
Response: 61

Prompt: Consider next the compound O=C(Nc1cc(F)c(F)c(F)c1)[C@H]1CCN(C(=O)c2ccc(-c3cccnc3)[nH]2)C1 in the same way.
Response: 65

====

- EXPERIMENT_DESCRIPTION: Pharmacokinetic studies in rats
- Assay type: in vivo
- PARTICULARS: male, Sprague-Dawley, rat, plasma, iv, 0.5 mg/kg
PROPERTY_NAME: clearance (mL/min/kg)
Could you give me the number in mL/min/kg? Just the number is fine.

Cc1ncnc(C)c1-c1ccc(C(=O)N2CC[C@H](C(=O)Nc3ccc(F)c(Cl)c3)[C@@H]2C)[nH]1 [CU14] ... 12.3

Next compound, clearance to be filled in.
Prompt: Request the reported clearance associated with Cc1cc(NC(=O)[C@H]2CCN(C(=O)c3ccc(-c4c(C)ncnc4C)[nH]3)[C@H]2C)ccc1F [CU15]
Response: 20

====

- MEASUREMENT_TARGET: CYP2C9 (Homo sapiens, UniProt P11712)
- Sequence (P11712 whole entry): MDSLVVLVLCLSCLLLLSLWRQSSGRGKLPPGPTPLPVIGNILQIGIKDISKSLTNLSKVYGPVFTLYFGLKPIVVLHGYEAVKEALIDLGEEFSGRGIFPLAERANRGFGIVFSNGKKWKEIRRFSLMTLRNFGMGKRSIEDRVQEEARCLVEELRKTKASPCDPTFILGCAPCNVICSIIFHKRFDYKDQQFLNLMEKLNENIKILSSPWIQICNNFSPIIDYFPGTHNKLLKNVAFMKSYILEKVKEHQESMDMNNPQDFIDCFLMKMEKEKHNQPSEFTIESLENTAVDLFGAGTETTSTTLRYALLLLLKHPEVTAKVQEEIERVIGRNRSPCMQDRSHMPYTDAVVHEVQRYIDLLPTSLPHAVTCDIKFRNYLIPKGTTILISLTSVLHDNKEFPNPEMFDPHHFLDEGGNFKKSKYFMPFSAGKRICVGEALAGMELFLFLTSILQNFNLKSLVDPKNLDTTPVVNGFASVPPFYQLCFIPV
- EXPERIMENT_DESCRIPTION: CYP450 inhibition in human liver microsomes
- Assay type: in vitro ADME
- PARTICULARS: pooled human liver microsomes, pH 7.4, probe tolbutamide (100 μM)
PROPERTY_NAME: inhibition at 10 min, 10 µM (%)
Reply numerically in %, unit not repeated.

Prompt: Can you share its inhibition at 10 min, 10 µM? I mean this molecule: O=C(Nc1cc(F)c(F)c(F)c1)[C@H]1CCN(C(=O)c2cc3ccccc3[nH]2)C1
Response: 62

Prompt: And what about the molecule O=C(Nc1cc(F)c(F)c(F)c1)[C@H]1CCN(C(=O)c2ccc(-c3cccnc3)[nH]2)C1 ?
Response: 87

Prompt: Same question for O=C(Nc1cc(F)c(F)c(F)c1)[C@H]1CCN(C(=O)c2ccc(-c3cncnc3)[nH]2)C1 please.
Response: 53

Prompt: And the next one, O=C(Nc1cc(F)c(F)c(F)c1)[C@H]1CCN(C(=O)c2ccc(-c3ccncc3)[nH]2)C1 ?
Response: 67

====

- EXPERIMENT_DESCRIPTION: In vitro microsomal stability
- Type: in vitro ADME
- PARTICULARS: human liver microsomes, 1 μM, Table 4
PROPERTY_NAME: CLint

Use the examples below as a reference point.
Cc1cc(NC(=O)[C@H]2CCN(C(=O)c3ccc(-c4c(C)n[nH]c4C)[nH]3)[C@H]2C)ccc1F ... 11.7 μL per min per mg protein
Cc1ncnc(C)c1-c1ccc(C(=O)N2CC[C@H](C(=O)Nc3cc(F)c(F)c(F)c3)[C@@H]2C)[nH]1 ... 2.1 μL per min per mg protein
Cc1cc(NC(=O)[C@H]2CCN(C(=O)c3ccc(-c4c(C)ncnc4C)[nH]3)[C@H]2C)ccc1F ... 4.9 μL per min per mg protein

Prompt: Look at this compound and give its reported CLint. Cc1ncnc(C)c1-c1ccc(C(=O)N2CC[C@H](C(=O)Nc3ccc(F)c(Cl)c3)[C@@H]2C)[nH]1
Response: 2.9 μL per min per mg protein

Prompt: Item: Cc1ncnc(C)c1-c1ccc(C(=O)N2CC[C@H](C(=O)Nc3ccc(F)c(Cl)c3)C2)[nH]1
Response: 3.6 μL per min per mg protein

====

- EXPERIMENT_DESCRIPTION: In vitro microsomal stability
- Type: in vitro ADME
- PARTICULARS: human liver microsomes, 1 μM, Table 3
PROPERTY_NAME: log10 of CLint (log10 of the value in μL per min per mg protein)
Please be aware that the numbers have been log10-transformed from CLint in μL per min per mg protein.

Worked examples, 7 compounds total:
O=C(Nc1cc(F)c(F)c(F)c1)[C@H]1CCN(C(=O)c2cc3ccccc3[nH]2)C1 [CU03] ... 0.96
O=C(Nc1cc(F)c(F)c(F)c1)[C@H]1CCN(C(=O)c2ccc(-c3cncnc3)[nH]2)C1 [CU08] ... -0.30
O=C(Nc1cc(F)c(F)c(F)c1)[C@H]1CCN(C(=O)c2ccc(-c3cccnc3)[nH]2)C1 [CU05] ... 0.46
O=C(Nc1cc(F)c(F)c(F)c1)[C@H]1CCN(C(=O)c2cc3cnccc3[nH]2)C1 [CU04] ... 0.04
O=C(Nc1cc(F)c(F)c(F)c1)[C@H]1CCN(C(=O)c2ccc(C3CC3)[nH]2)C1 [CU02] ... 1.16
Cc1ccc(C(=O)N2CC[C@H](C(=O)Nc3cc(F)c(F)c(F)c3)C2)[nH]1 [CU01] ... 1.16
O=C(Nc1cc(F)c(F)c(F)c1)[C@H]1CCN(C(=O)c2ccc(-c3ccncc3)[nH]2)C1 [CU06] ... 0.66

// switching to the query compound
Prompt: Would you kindly share the measured log10 of CLint for O=C(Nc1cc(F)c(F)c(F)c1)[C@H]1CCN(C(=O)c2ccc(-c3ccccn3)[nH]2)C1 [CU07] ?
Response: 0.79

====

- MEASUREMENT_TARGET: CYP2A6 (Homo sapiens, UniProt P11509)
- Sequence (P11509 whole entry): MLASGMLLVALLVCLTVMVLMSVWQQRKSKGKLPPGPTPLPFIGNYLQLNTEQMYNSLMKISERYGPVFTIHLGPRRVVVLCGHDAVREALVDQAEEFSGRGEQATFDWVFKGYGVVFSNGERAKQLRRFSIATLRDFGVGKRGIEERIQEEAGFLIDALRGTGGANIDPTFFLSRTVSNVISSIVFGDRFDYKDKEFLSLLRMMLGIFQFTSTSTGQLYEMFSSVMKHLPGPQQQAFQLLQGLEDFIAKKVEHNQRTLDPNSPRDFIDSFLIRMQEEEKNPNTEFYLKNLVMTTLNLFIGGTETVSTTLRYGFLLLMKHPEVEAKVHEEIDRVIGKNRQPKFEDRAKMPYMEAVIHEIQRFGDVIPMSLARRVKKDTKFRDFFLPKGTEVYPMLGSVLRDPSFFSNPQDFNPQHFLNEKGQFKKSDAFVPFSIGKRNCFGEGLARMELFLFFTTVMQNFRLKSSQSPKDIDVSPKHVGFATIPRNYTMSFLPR
- EXPERIMENT_DESCRIPTION: CYP450 inhibition in human liver microsomes
- Format: in vitro ADME
- PARTICULARS: pooled human liver microsomes, pH 7.4, probe coumarin (1.5 μM)
PROPERTY_NAME: inhibition at 10 min, 10 µM (%)
Answer format: numeric, % implied, no suffix.

Prompt: Field: inhibition at 10 min, 10 µM (CYP2A6 (Homo sapiens, UniProt P11509)). Entry: O=C(Nc1cc(F)c(F)c(F)c1)[C@H]1CCN(C(=O)c2cc3cnccc3[nH]2)C1
Response: 57

====

- MEASUREMENT_TARGET: CYP2C8 (Homo sapiens)
- Sequence (P10632 1-490): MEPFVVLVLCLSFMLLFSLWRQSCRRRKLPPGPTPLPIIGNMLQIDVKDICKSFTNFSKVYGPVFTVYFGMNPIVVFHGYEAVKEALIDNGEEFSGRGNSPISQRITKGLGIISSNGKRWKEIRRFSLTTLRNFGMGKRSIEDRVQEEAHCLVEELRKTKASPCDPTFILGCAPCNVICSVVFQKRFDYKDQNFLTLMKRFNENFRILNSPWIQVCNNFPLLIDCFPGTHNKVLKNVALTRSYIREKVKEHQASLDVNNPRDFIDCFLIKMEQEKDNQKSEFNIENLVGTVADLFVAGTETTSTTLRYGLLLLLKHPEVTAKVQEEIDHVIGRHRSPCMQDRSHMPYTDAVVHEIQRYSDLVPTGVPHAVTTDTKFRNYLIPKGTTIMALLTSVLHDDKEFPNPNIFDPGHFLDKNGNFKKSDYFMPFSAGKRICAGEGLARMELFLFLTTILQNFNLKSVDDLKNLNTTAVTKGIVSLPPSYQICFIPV
- EXPERIMENT_DESCRIPTION: CYP450 inhibition in human liver microsomes
- Assay type: in vitro ADME
- PARTICULARS: pooled human liver microsomes, pH 7.4, probe amodiaquine (1 μM)
PROPERTY_NAME: inhibition at 10 min, 10 µM (%)
Field: numeric (%). Do not append units.

Prompt: Can you look up inhibition at 10 min, 10 µM on CYP2C8 (Homo sapiens) for O=C(Nc1cc(F)c(F)c(F)c1)[C@H]1CCN(C(=O)c2cc3cnccc3[nH]2)C1 [CU04] ?
Response: 55
